- Tested on: Sam68 (KHDRBS1)
- assay.method.text: compounds binding KHDRBS1 protein – biochemical, small-molecule microarray, 635 nm fluorescence, primary screen (AID 1125);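 note: score merges 667 nm channel intensity with signal to noise over triplicate slides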
- condition.label: higher = more signal
Entry flag: MET if composite z-score reaches 1; NOT MET if it does not.

# compound, category.label
measured = [
    ("CC(C)(C)OC(=O)CC[C@]1(C(=O)O)COC(c2ccc(OCCCO)cc2)=N1", "NOT MET"),
    ("COc1ccc([Si](C)(C)[C@@H]2[C@@H](CC(=O)N3Cc4ccccc4C[C@H]3CO)O[C@]3(C(=O)N(Cc4cccc(N5CCCCC5=O)c4)c4ccccc43)[C@H]2C)cc1", "MET"),
    ("N#Cc1ccc(NN2C(C(O)c3ccccc3)C=CC3C(=O)N(c4ccccc4)C(=O)C32)cc1 (centres undefined)", "NOT MET"),
    ("COc1cc2c(cc1OC)CN(C(=O)[C@@H]1[C@H]3C(=O)O[C@H](c4ccccc4)[C@H](c4ccccc4)N3[C@H](c3ccc(O)cc3)[C@@]13C(=O)Nc1ccc(C#CCNC(N)=O)cc13)CC2", "NOT MET"),
]

Could you now consider this next compound?
Is reported composite z-score greater than or equal to 1 here: O=C(O)[C@]1(CCS(=O)(=O)c2ccccc2)N=C(c2ccc(OCCCO)cc2)O[C@@H]1c1ccccc1
NOT MET

----------
- System: Fibrinogen (Alexa647-labelled)
- assay.method.text: Alexa647-fibrinogen binding to printed small molecules – biochemical, small-molecule microarray, 635/667 nm fluorescence, artefact control for SMM control-protein annotation, profiling panel (AID 1131);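 note: z-score merges 667 nm fluorescence with per-spot signal-to-noise over triplicate slides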
- condition.label: fibrinogen-A647 binding fluorescence, higher = more signal
endpoint: composite z-score

# compound, reported.value
measured = [
    ("C#CCOC(=O)N[C@H](C=CCCCC)c1ccccc1", 0.762),
    ("CCCCC(O)C1C=CC2C(=O)N(Cc3ccccc3)C(=O)C2N1n1cnnc1 (configuration not stated)", 0.892),
    ("O=C1O[C@@H](c2ccccc2)[C@@H](c2ccccc2)N2[C@@H](c3ccc(O)cc3)[C@]3(C(=O)Nc4ccc(C#CC5=CCCCC5)cc43)[C@@H](C(=O)Nc3nc4ccccc4s3)[C@H]12", 0.852),
    ("O=C1CSC(c2cccc([N+](=O)[O-])c2)N1c1ccccc1 (configuration not stated)", 0.667),
    ("CCOC(=O)C1=CC[C@@H](c2ccc(N(CC)CC)cc2)N(S(=O)(=O)c2ccc(C)cc2)[C@H]1c1ccc([N+](=O)[O-])cc1", 0.403),
]

Quick check: composite z-score of COCCOC(=O)N1C(=O)[C@@]2(c3cc(C#Cc4ccc(OC)cc4)ccc31)[C@H](C(=O)N1CCc3cc(OC)c(OC)cc3C1)[C@H]1C(=O)O[C@H](c3ccccc3)[C@H](c3ccccc3)N1[C@@H]2c1ccc(O)cc1 ?
0.753

Quick check: composite z-score of COc1ccc(C#Cc2ccc3c(c2)[C@]2(C(=O)N3)[C@H](C(N)=O)[C@H]3C(=O)O[C@H](c4ccccc4)[C@H](c4ccccc4)N3[C@@H]2c2ccc(O)cc2)cc1 ?
0.844

----------
- assay.method.text: small molecules captured by biotinylated probe aFSTL3 – biochemical, small-molecule microarray, fluorescence 635/667, stem cell growth factor project, primary screen (AID 1064);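 note: measures binding of the biotinylated anti-FSTL3 antibody to printed compounds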
- condition.label: higher = more signal
Entry flag: True if composite z-score reaches -0.008; False if it does not.

Example cases with answers are listed next.
# entry.smiles, category.label
data = [
    ("C=CC[C@@]1(C(=O)NCCN2CCOCC2)N=C(c2ccc(OCCCO)cc2)O[C@@H]1c1ccccc1", "True"),
    ("COc1ccc(CCNC(=O)[C@@H]2c3ccccc3C(=O)N(Cc3ccccc3)[C@H]2c2ccc(CO)cc2)cc1", "True"),
    ("C=CCN1C(=O)[C@@]2(O[C@@H](CCO)[C@H]([Si](C)(C)c3ccc(OC)cc3)[C@H]2C)c2cc(NC(=O)[C@H](C)O)ccc21", "False"),
    ("COCCOC(=O)N1C(=O)[C@@]2(c3ccccc31)[C@H](c1ccc(OCCO)cc1)N1[C@H](c3ccccc3)[C@H](c3ccccc3)OC(=O)[C@H]1[C@@H]2C(=O)NC[C@H](O)c1ccccc1", "False"),
    ("CC(C)CNC(=O)[C@@]1(C)c2ccccc2C(=O)N(Cc2ccccc2)[C@H]1c1ccc(CO)cc1", "True"),
]

Is reported composite z-score greater than or equal to -0.008 here: COC(=O)[C@@]1(Cc2ccc(F)cc2)[C@H]2c3cc(C(=O)N(C)C)n(CCSCCO)c3C[C@H]2CN1C(=O)c1ccccc1
True

Is reported composite z-score greater than or equal to -0.008 here: C=C(CCCC)/C(=C/C[C@@H](OC(=O)c1ccncc1)c1ccccc1OCCO)c1cc(C(=O)OC)ccc1OC
False
